Tested on: HEK293FT dCK*-IKZF1
Test: relative growth recovery (pomalidomide 10 uM = 100%, DMSO = 0%); higher = more growth rescue (IKZF1 fusion degradation)
Conditions: compound concentration: 5 uM; AraC concentration: 0.3 uM; overnight pretreatment + 4 days AraC
Where a name gives a salt, the structure may show the parent alone.
Consider the following compounds; for each one, report its relative growth recovery.
Answers are plain numbers, in %.

Task: Lab note: need relative growth recovery for CCC1(O)CC2CN(CCc3c([nH]c4ccccc34)[C@@](C(=O)OC)(c3cc4c(cc3OC)N(C=O)C3[C@]45CCN4CC=C[C@@](CC)([C@@H](OC(C)=O)[C@]3(O)C(=O)OC)[C@H]45)C2)C1 (stereo partly drawn) [Vincristine sulfate] on HEK293FT dCK*-IKZF1, anyone have it?
Result: -11.8

Task: Also C[C@H]1O[C@@H](O[C@H]2[C@@H](O)C[C@H](O[C@H]3[C@@H](O)C[C@H](O[C@H]4CC[C@]5(C)C6C[C@@H](O)[C@]7(C)[C@@H](C8=CC(=O)OC8)CC[C@]7(O)C6CC[C@@H]5C4)O[C@@H]3C)O[C@@H]2C)C[C@H](O)[C@@H]1O (stereo partly drawn) , if possible.
Result: -12.4

Next item in the queue.
Task: Can you look up relative growth recovery on HEK293FT dCK*-IKZF1 for CN1CCC[C@@H]1CCO[C@](C)(c1ccccc1)c1ccc(Cl)cc1 ?
Result: -3.56
